# measurement-target: Recombinant human his-tagged IGF 1R extracellular domain protein (human) (UniProt P08069)
# experiment-notes: SPR, captured antibody, pH 7.4
Measured kon, listed per entry for reference.
The figure you give is taken to be in M⁻¹ s⁻¹; do not add the unit.

- binder: "VRDN-03105 (antibody, V domains shown) VH: QVQLVESGGGVVQPGRSLRLSCAASGFTFSDHYMDWVRQAPGKGLEWVAIIWFDGSSKYYVDSVKGRFTISRDNSKNTLYLQMNSLRAEDTAVYYCARELGRRYFDIWGRGTLVTVSS VL: EIVLTQSPATLSLSPGERATLSCRASQGVSSYLAWYQQKPGQAPRLLIYGASTRATGIPARFSGSGSGTDFTLTISSLEPEDFAVYYCQQRSRWPPWTFGQGTKLEIK"
  reading: 405000

Next:
INPUT: Please indicate kon recorded for VRDN-03113 (antibody, V domains shown) VH: QVQLVESGGGVVQPGRSLRLSCAASGFTFSDHYMDWVRQAPGKGLEWVAIIWFDGSSKYYADSVKGRFTISRDNSKNTLYLQMNSLRAEDTAVYYCARELGRRYFDIWGRGTLVTVSS VL: EIVMTQSPATLSVSPGERATLSCRASQGVSSYLAWYQQKPGQAPRLLIYGASTRATGIPARFSGSGSGTEFTLTISSLQSEDFAVYYCQQRSRWPPWTFGQGTKLEIK
OUTPUT: 1.41e+06

The values you see were collected from patent US20240352133A1.
